Below are IC50 values for ASK1 (Homo sapiens (Human), UniProt Q99683) collected from several publications.

Incoming: GET /values?readout=IC50&item= "C[C@H]1COc2c(NC(=O)c3cc(-n4cnc(C5CC5)c4)c(N4CC[C@@H](O)C4)cn3)cccc2-c2nnnn21"
Outgoing: 4.7 nM

Incoming: GET /values?readout=IC50&item= "O=C(Nc1cc2c(cc1F)CN(c1cccc(-c3nncn3C3CC3)n1)C2=O)C1CC1"
Outgoing: 200 to 1000 nM

Incoming: GET /values?readout=IC50&item= "C[C@H](CO)n1nnnc1-c1cccc(NC(=O)c2cc3c(cn2)CCN(C(=O)CCC(F)(F)F)C3)n1"
Outgoing: 1 to 10 nM

Incoming: GET /values?readout=IC50&item= "O=C(c1cc2c(cc1-c1cccnc1)C(=O)N(c1cccc(-c3nncn3C3CC3)n1)C2)N1CCCC1"
Outgoing: < 200 nM

Incoming: GET /values?readout=IC50&item= "CCOc1ccc(-c2ccc(C(=O)Nc3cccc(-c4nncn4C(C)C)n3)[nH]2)cc1"
Outgoing: 7.5 nM

Incoming: GET /values?readout=IC50&item= "CC(C)n1cnnc1-c1cccc(NC(=O)c2cc3c(cc2F)CCN(S(=O)(=O)NC2CC2)C3)n1"
Outgoing: 1 to 10 nM

Incoming: GET /values?readout=IC50&item= "COc1nc2cc(F)c(C(=O)Nc3cccc(-c4nnnn4C(C)C)n3)cc2nc1N1CCCCC1"
Outgoing: 100 to 1000 nM

Incoming: GET /values?readout=IC50&item= "CC(C)n1cnnc1-c1cccc(NC(=O)c2ccc3nc(N4CCN(C(C)(C)C)CC4)sc3c2)n1"
Outgoing: 10 to 100 nM

Incoming: GET /values?readout=IC50&item= "CC(C)N1Cc2cc(OCC(F)(F)F)c(C(=O)Nc3cccc(-c4nnnn4[C@H](C)CO)n3)cc2S1(=O)=O"
Outgoing: 100 to 1000 nM

Incoming: GET /values?readout=IC50&item= Cc1cc(F)c(C(=O)Nc2cccc(-c3nncn3[C@H](C)CO)n2)cc1C1CC1NC(=O)OCC(F)(F)F (stereo partly shown)
Outgoing: > 10 nM

Incoming: GET /values?readout=IC50&item= "CC(C)n1nnnc1-c1cccc(NC(=O)c2cc3sc(N4CCCC4)nc3cc2F)n1"
Outgoing: > 1000 nM

Incoming: GET /values?readout=IC50&item= "COc1cc(C)c(-c2cnn(C3CC3)c2)cc1C(=O)Nc1cccc(-c2nnnn2C(C)C)n1"
Outgoing: < 1 nM

Incoming: GET /values?readout=IC50&item= "C[C@H]1COCCN1c1cnc(C(=O)Nc2cccc3c2OCCn2nnnc2-3)cc1-n1cnc(C2CC2)c1"
Outgoing: 3.3 nM

Incoming: GET /values?readout=IC50&item= "CC(=O)OC[C@@H](C)n1nnnc1-c1cccc(NC(=O)c2cc3c(cc2F)CCNC3)n1"
Outgoing: > 1000 nM

Incoming: GET /values?readout=IC50&item= "Cc1ccccc1-c1ccc(C(=O)Nc2cccc(-c3nncn3C(C)C)n2)[nH]1"
Outgoing: 5.1 nM

Incoming: GET /values?readout=IC50&item= "CC(C)n1cnnc1-c1cccc(N2Cc3ccc(-c4cccnc4)cc3C2=O)n1"
Outgoing: < 200 nM
